Recorded Kd for the following binders
Molecular target: feline FcRn (FCN-F82W3, Acrobiosystems) (feline)
Test: SPR Carterra, IgG coupled, pH 6.0
Reply with just the number (in nM).

Task item: Sample anti-NGF feline IgG1a, Fc variant N389c-R (antibody, part only; not given: anti-NGF variable domains, not shown: another chain or arm of the molecule; small tags and cut ends) Fc: PPEMLGGPSIFIFPPKPKDTLSISRTPEVTCLVVDLGPDDSDVQITWFVDNTQVYTAKTSPREEQFNSTYRVVSVLPILHQDWLKGKEFKCKVNSKSLPSPIERTISKAKGQPHEPQVYVLPPAQEELSRNKVSVTCLIKSFHPPDIAVEWEITGQPEPERNYRTTPPQLDSDGTYFVYSKLSVDRSHWQRGNTYTCSVSHEALHSHHTQKSLTQSPGK — what was its Kd?
Reply: 188

---
Task item: Sample anti-NGF feline IgG1a, Fc variant S434F, E380D (antibody, part only; not given: anti-NGF variable domains, light chain, not shown: another chain or arm of the molecule; small tags and cut ends) Fc: PPEMLGGPSIFIFPPKPKDTLSISRTPEVTCLVVDLGPDDSDVQITWFVDNTQVYTAKTSPREEQFNSTYRVVSVLPILHQDWLKGKEFKCKVNSKSLPSPIERTISKAKGQPHEPQVYVLPPAQEELSRNKVSVTCLIKSFHPPDIAVDWEITGQPEPENNYRTTPPQLDSDGTYFVYSKLSVDRSHWQRGNTYTCSVSHEALHFHHTQKSLTQSPGK — what was its Kd?
Reply: 3.3

Task item: Sample anti-NGF feline IgG1a, Fc variant R334D (antibody, part only; not given: anti-NGF variable domains, light chain, not shown: another chain or arm of the molecule; small tags and cut ends) Fc: PPEMLGGPSIFIFPPKPKDTLSISRTPEVTCLVVDLGPDDSDVQITWFVDNTQVYTAKTSPREEQFNSTYRVVSVLPILHQDWLKGKEFKCKVNSKSLPSPIEDTISKAKGQPHEPQVYVLPPAQEELSRNKVSVTCLIKSFHPPDIAVEWEITGQPEPENNYRTTPPQLDSDGTYFVYSKLSVDRSHWQRGNTYTCSVSHEALHSHHTQKSLTQSPGK — what was its Kd?
Reply: 133
